As shown below, each of these compounds has a reported viability at 5 µM value.
system: PC3 human prostate cancer cells; assay: Example S: in vitro anticancer screen, PC-3 cells, Wst1; type: cell-based; settings: Homo sapiens, PC-3; 5 μM, approximately 20 hours, Wst1; read-out: PC-3, percent of cancer cell survival relative to vehicle treated cells
readout kind: viability at 5 µM (%)

• CCCCCCCCCCOCCCn1cnc2cnc3ccccc3c21 [FZ] = 32.7
• CCCCCCCCCCCCCCCc1nc2c(O)nc3ccccc3c2n1CC(C)C [FD] = 112
• CCCCCCCCCCCCOCCn1cnc2c(N(C)C)nc3ccccc3c21 [FH] = 89
• CCCCCCCCCCCCCCCCn1cnc2cnc3ccccc3c21 [FE, 1-Hexadecyl-1H-imidazo[4,5-c]quinoline] = 34.2
• O=C(NCCCCCCCCNc1ccnc2ccccc12)c1ccccc1 [DY, N-[8-(Quinolin-4-ylamino)octyl]benzamide] = 16.1
• CCCCCCCCCCCCCCCCn1cnc2c(N)nc3ccccc3c21 [FF] = 93
• CCCCCCOCCCCCCCCn1ccc2ccccc21 [FW, 1-[8-(Hexyloxy)octyl]-1H-indole] = 98.1
• COCCCCCNc1ccnc2ccccc12 [CM, N-(5-Methoxypentyl)quinolin-4-amine] = 37.8

====

Property: MIC; scope: individual compounds
test system: Cryptococcus neoformans strains; assay: Example N: MIC and MFC (CLSI) against Cryptococcus neoformans; format: cell-based; settings: Cryptococcus neoformans, read-out: MIC 100%, Range; incubated for 72 hrs, three clinical strains
readout kind: MIC

- COc1ccc(OCCCCCCCCNc2ncnc3ccccc23)cc1: 0.25 to 4 µg/mL
- CCCCCCOCCCCCCCCCCNc1ccnc2ccccc12 [Compound AL, N-[10-(Hexyloxy)decyl]quinolin-4-amine]: 2 µg/mL
- CCCCCCOCCCCCCCCNc1ccnc2c(Cl)cccc12: 0.5 to 4 µg/mL
- CCCCCCCCCCNc1ncnc2ccccc12: 0.25 to 2 µg/mL

====

system: 4T1 murine breast cancer cells; assay: Example S: in vitro anticancer screen, 4T1 cells, Wst1; type: cell-based, mouse; settings: Mus musculus, 4T1, 18 h, 5 μM, 18 hr, Wst1; read-out: 4T1 5 μM, percent of cancer cell survival relative to vehicle treated cells
readout kind: viability at 5 µM (%)

- CCCCC(OC(C)=O)c1nc2c(N)nc3ccccc3c2n1CC(C)C (centres unmarked): 123
- CCCCCCOCCCCCCNc1ccnc2ccccc12 [CK, N-[6-(Hexyloxy)hexyl]quinolin-4-amine]: 45.3
- CCCCCCOCCCOCCCCCn1cnc2cnc3ccccc3c21: 21.1
- CCCOCCOCCCCCCCCNc1ccnc2ccccc12: 27.7
- CCCCCCOCCCCCOCCCNc1ccnc2ccccc12: 47.2

====

tested on: PC-3 prostate cancer cells; experiment: Example T: sensitisation of PC-3 cells to doxorubicin, oxaliplatin, paclitaxel or vincristine, Wst1; format: cell-based, human; settings: PC-3 cells; compound 5 μM + doxorubicin 3.5 μM; 72 hours; chemotherapy agent alone normalized to 100%
# strict inequality: Doxorubicin 3.5 μM: percent cell survival < 90% yields label 1, everything else yields label 0

• COCCCCCNc1ccnc2ccccc12 [CM, N-(5-Methoxypentyl)quinolin-4-amine] = label 1
• CCCCCCCCCCOCCCn1cnc2cnc3ccccc3c21 [FZ] = label 1
• O=C(NCCCCCCCCNc1ccnc2ccccc12)c1ccccc1 [DY, N-[8-(Quinolin-4-ylamino)octyl]benzamide] = label 1
• CCCCCCCCCCCCCCCCn1cnc2cnc3ccccc3c21 [FE, 1-Hexadecyl-1H-imidazo[4,5-c]quinoline] = label 1
• CCCCCCCCCCCCOCCn1cnc2c(N(C)C)nc3ccccc3c21 [FH] = label 1
• CCCCCCCCCCCCCCCc1nc2c(O)nc3ccccc3c2n1CC(C)C [FD] = label 0
• CCCCCCOCCCCCCCCn1ccc2ccccc21 [FW, 1-[8-(Hexyloxy)octyl]-1H-indole] = label 0

====

test system: PC-3 prostate cancer cells; assay: Example T: sensitisation of PC-3 cells to doxorubicin, oxaliplatin, paclitaxel or vincristine, Wst1; assay type: cell-based, human; conditions: PC-3 cells; compound 1.5 μM + paclitaxel 50 μM; 72 hours; chemotherapy agent alone normalized to 100%
Below, each entry is listed alongside its reported Paclitaxel 50 μM: percent cell survival.
readout kind: Paclitaxel 50 μM: percent cell survival (%)

• CCCCCCOc1ccc(CNc2ccnc3ccccc23)cc1 [AA, N-[4-(Hexyloxy)benzyl]quinolin-4-amine] = 22.2
• CCCCCCCCCCOCCCCn1cnc2cnc3ccccc3c21 = 109.2
• CCCCCCCCCCCCOCCn1cnc2cnc3ccccc3c21 = 47.2
• CCCCCCOc1ccc(OCCNc2ccnc3ccccc23)cc1 = 145.7
• CCCCCCOCCCCCCCCn1cnc2cnc3ccccc3c21 = 24

====

test system: PC3 human prostate cancer cells; assay: Example S: in vitro anticancer screen, PC-3 cells, Wst1; type: cell-based; conditions: Homo sapiens, PC-3; 1.5 μM, approximately 20 hours, Wst1; read-out: PC-3, percent of cancer cell survival relative to vehicle treated cells
readout kind: viability at 1.5 µM (%)

• CCCCCCCCCCCCOCCn1cnc2cnc3ccccc3c21 [FG] = 39.2
• CCCCCCCCCCOCCCCn1cnc2cnc3ccccc3c21 [GA] = 41.3
• CCCCCCOc1ccc(CNc2ccnc3ccccc23)cc1 [AA, N-[4-(Hexyloxy)benzyl]quinolin-4-amine] = 82.6
• CCCCCCOCCCCCCCCn1cnc2cnc3ccccc3c21 [GB] = 36.4
• CCCCCCOc1ccc(OCCNc2ccnc3ccccc23)cc1 [BA] = 42.4

====

tested on: 4T1 murine breast cancer cells; assay: Example S: in vitro anticancer screen, 4T1 cells, Wst1; format: cell-based, mouse; settings: Mus musculus, 4T1, 18 h, 5 μM, 18 hr, Wst1; read-out: 4T1 5 μM, percent of cancer cell survival relative to vehicle treated cells
viability at 5 µM for assorted molecules
readout kind: viability at 5 µM (%)

• CCCCCCOCCCCCCCCNc1cc(C)nc2ccccc12 = 30
• CCCCCCOCCCCCCCCNc1ccncn1 [AU, N-[8-(Hexyloxy)octyl]pyrimidin-4-amine] = 23.2
• CCCCCCOc1ccccc1OCCNc1ccnc2ccccc12 = 38
• CCCCCCOc1ccc(OCCCCNc2ccnc3ccccc23)cc1 = 28.3
• CCCCCCNc1ccnc2ccccc12 = 45.8
• CCCCCCOCCCCCCCCCn1cnc2cnc3ccccc3c21 = 24.5
• O=C(NCCCCCCCCNc1ccnc2ccccc12)c1ccccc1 [DY, N-[8-(Quinolin-4-ylamino)octyl]benzamide] = 60.5
• c1ccc(COCCCCCCCCNc2ccnc3ccccc23)cc1 [CO, N-[8-(Benzyloxy)octyl]quinolin-4-amine] = 55.6
• CCCCCCOc1ccccc1CNc1ccnc2ccccc12 [DS, N-[2-(Hexyloxy)benzyl]quinolin-4-amine] = 25.5

====

tested on: PC-3 prostate cancer cells; test: Example T: sensitisation of PC-3 cells to doxorubicin, oxaliplatin, paclitaxel or vincristine, Wst1; format: cell-based, human; conditions: PC-3 cells; compound 0.4 μM + vincristine 100 nM; 72 hours; chemotherapy agent alone normalized to 100%
readout kind: Vincristine 100 nM: percent cell survival (%)

- O=C(NCCCCCCCCNc1ccnc2ccccc12)c1ccncc1: 88.5
- CCCCOCCCCCCCCCCn1cnc2cnccc21: 32.9
- CCCCCCOCCCCCCCCNc1ccnc2cc(Cl)ccc12: 33.6
- CCOCCCOCCCCCCCCNc1ccnc2ccccc12: 20.1
- COc1cccc(OCCCCCCCCNc2ccnc3ccccc23)c1: 71.6
- O=C(NCCCCCCCCNc1ccnc2ccccc12)c1ccccn1: 47.1
- c1ccc(Oc2cccc(CNc3ccnc4ccccc34)c2)cc1: 22.6
- Cc1ccccc1OCCCCCCCCNc1ccnc2ccccc12 [BG, N-[8-(o-Tolyloxy)octyl]quinolin-4-amine]: 71.1
- COc1cccc(C(=O)NCCCCCCCCNc2ccnc3ccccc23)c1: 89
- COCCCCCCCCNc1ccnc2ccccc12: 16.9

====

test system: Candida glabrata strains; test: Example N: MIC and MFC (CLSI) against Candida glabrata; format: cell-based; settings: Nakaseomyces glabratus, 48 h
The following compounds are listed with their measured MIC50 values.
readout kind: MIC50

* CCCCCCOc1cccc(CNc2ccnc3ccccc23)c1 [Compound AC, N-[3-(Hexyloxy)benzyl]quinolin-4-amine] | 1 to 2 µg/mL
* CCCCCCCCCCNc1ncnc2ccccc12 | 4 to 8 µg/mL
* CCCCCCOCCCCCCCCNc1ccnc2c(Cl)cccc12 | 8 µg/mL

====

Measured Reduction in viable THP-1 cell count (percent change) from 0 hours, Mean ± SE values are reported for all entries that follow.
test system: THP-1 cells; test: Example C: compound screen, viable THP-1 cell count after 5 hours +/- LPS; format: cell-based, Human; conditions: Compound (0.1 μM), Plus LPS
readout kind: Reduction in viable THP-1 cell count (percent change) from 0 hours, Mean ± SE (%)

• CCCCCCCCCCNc1ccnc2ccccc12 = −21.28
• CCCCCCOc1cccc(CNc2ccnc3ccccc23)c1 [Compound AC, N-[3-(Hexyloxy)benzyl]quinolin-4-amine] = −15.14
• CCCCCCCCCCNc1ncnc2ccccc12 = −26.55
• c1ccc(Oc2cccc(CNc3ncnc4ccccc34)c2)cc1 = −25.80
• COCCCCCCCCNc1ccnc2ccccc12 = −30.15
• CCCCOCCCCCCCCCCNc1ccnc2ccccc12 = −19.80
• COc1ccc(OCCCCCCNc2ccnc3ccccc23)cc1 = −38.09
• c1ccc(Oc2cccc(CNc3ccnc4ccccc34)c2)cc1 = −27.32
